# IC50 listing for each entry below
- Tested on: aromatase activity in SK-BR-3 breast cancer cells
- protocol-text: Aromatase tritiated water-release assay in SK-BR-3 cell lines (first compound set)
- Assay type: cell-based, human
- particulars: SK-BR-3 cells, 24 h treatment; five concentrations, each in triplicate; read-out: IC50 (μM), suppression of aromatase activity in SK-BR-3 breast cancer cells
Report the value in µM with no unit label.

Task item: Could you share what IC50 was measured for CS(=O)(=O)Nc1ccc([N+](=O)[O-])cc1OC1CCCCC1 [NS-398, reference compound] , tested on aromatase activity in SK-BR-3 breast cancer cells?
Reply: 0.68

Task item: Could you share what IC50 was measured for CC1CCCCC1Oc1cc([N+](=O)[O-])ccc1N(C)S(C)(=O)=O (stereo not shown) , tested on aromatase activity in SK-BR-3 breast cancer cells?
Reply: 0.96

Task item: Could you share what IC50 was measured for CCCCCCCCCOc1cc([N+](=O)[O-])ccc1N(C)S(C)(=O)=O , tested on aromatase activity in SK-BR-3 breast cancer cells?
Reply: 3.96

Task item: Could you share what IC50 was measured for CCCOc1cc([N+](=O)[O-])ccc1NS(C)(=O)=O , tested on aromatase activity in SK-BR-3 breast cancer cells?
Reply: 2.51

###

# IC50 listing for each entry below
- Tested on: aromatase activity in SK-BR-3 breast cancer cells
- protocol-text: Aromatase tritiated water-release assay in SK-BR-3 cell lines (first compound set)
- Assay type: cell-based, human
- particulars: SK-BR-3 cells, 24 h treatment; five concentrations, each in triplicate; read-out: IC50 (μM), suppression of aromatase activity in SK-BR-3 breast cancer cells
Report the value in µM with no unit label.

Example entries and their recorded answers appear below.
{"columns": ["compound", "IC50 [µM]"],
 "data": [
  ["CC(C)Oc1cc([N+](=O)[O-])ccc1NS(C)(=O)=O", 5.87],
  ["CC(C)Oc1cc([N+](=O)[O-])ccc1N(C)S(C)(=O)=O", 2.81],
  ["CN(c1ccc([N+](=O)[O-])cc1OC1CCCC1)S(C)(=O)=O", 0.44],
  ["CC1CCCCC1Oc1cc([N+](=O)[O-])ccc1NS(C)(=O)=O (stereo not drawn)", 1.21],
  ["CCCOc1cc([N+](=O)[O-])ccc1N(C)S(C)(=O)=O", 0.76],
  ["CCC(CC)Oc1cc([N+](=O)[O-])ccc1NS(C)(=O)=O", 0.3],
  ["CN(c1ccc([N+](=O)[O-])cc1OC1CCCCC1)S(C)(=O)=O", 0.47]
]}

Task item: Could you share what IC50 was measured for CCCCCCOc1cc([N+](=O)[O-])ccc1NS(C)(=O)=O , tested on aromatase activity in SK-BR-3 breast cancer cells?
Reply: 2.67
